Target: Inadl_8, Q8NI35
Sequence (Q8NI35 1425-1530): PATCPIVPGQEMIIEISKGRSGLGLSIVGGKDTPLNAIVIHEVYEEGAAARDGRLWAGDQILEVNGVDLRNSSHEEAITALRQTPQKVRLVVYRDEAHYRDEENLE
Experiment: holdup assay
Design: key: below the threshold = too weak to quantify, mostly under pKd 3.1 to 4
Details: plain residues with an end cap or a label only (N-terminal biotin on a linker: ado-ado)
quantity.name: pKd
# answer = number (no unit)

Answered cases to consult:
* EVEEFPETSV [TRPV3, Q8NET8] | 3.86
* TKGPRGPTRV [SAPCD1, Q5SSQ6] | 5.64
* QSARLWETSI [ADAM22, Q9P0K1] | 3.81
* LRSPRTPSEV [OR10G3, Q8NGC4] | 4.18
* PAPSSGKDYV [CLDN1, O95832] | 3.92
* KSGKQTMLVV [TRIM29, Q14134] | 3.69

For the binder shown here, PDGQCTVTEV [RNF146, Q9NTX7] , give the reported pKd.
4.13
